- Test system: RPMI-8402;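 further: ALL cell lines in 384-well plates, five doses spanning 10,000-fold, each plate scaled between vehicle and 100 µmol/L benzalkonium chloride controls, sDSS an adapted area-under-curve metric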
- measurement.description: selective drug sensitivity score (sDSS, relative to normal bone marrow) (sDSS (score)); higher = more potent and effective on the cell line relative to normal bone marrow cells
- experimental.parameters: 72 h
MET means recorded selective drug sensitivity score is 0.5 or above; NOT MET means it is below 0.5.

Would you say N#CC1(c2ccc(NC(=O)c3cccnc3NCc3ccncc3)cc2)CCCC1 [Apatinib] (top concentration 10000 nM) shows selective drug sensitivity score at minimum 0.5?
NOT MET

Has CCS(=O)(=O)Nc1ccc(Oc2ccc(F)cc2F)c(-c2cn(C)c(=O)c3[nH]ccc23)c1 [Mivebresib] (top concentration 10000 nM) a recorded selective drug sensitivity score greater than or equal to 0.5?
MET

Hello, I need to know if C[C@H](Nc1ncnc2nc[nH]c12)c1cc2cccc(Cl)c2c(=O)n1-c1ccccc1 [Duvelisib] (top concentration 500 nM) has measured selective drug sensitivity score not below 0.5. Thanks!
NOT MET

Form field: selective drug sensitivity score at least 0.5? Entry: Cc1c2oc3c(C)ccc(C(=O)N[C@@H]4C(=O)N[C@H](C(C)C)C(=O)N5CCC[C@H]5C(=O)N(C)CC(=O)N(C)[C@@H](C(C)C)C(=O)O[C@@H]4C)c3nc-2c(C(=O)N[C@@H]2C(=O)N[C@H](C(C)C)C(=O)N3CCC[C@H]3C(=O)N(C)CC(=O)N(C)[C@@H](C(C)C)C(=O)O[C@@H]2C)c(N)c1=O [Dactinomycin] (top concentration 1000 nM)
MET

Is selective drug sensitivity score at least 0.5? Consider CC(=O)O[C@]1(C(C)=O)CC[C@H]2[C@@H]3C=C(C)C4=CC(=O)CC[C@]4(C)[C@H]3CC[C@@]21C [Megestrol_acetate] (top concentration 10000 nM)
MET

Source listed as the supplement of paper PMC8967900.
